system: HCT116; experiment: Cytotoxicity under normoxia and hypoxia (anaerobic chamber, sulphorhodamine B), HCT116; type: cell-based, human; conditions: Homo sapiens, HCT-116; HCT116, hypoxia, 4 h exposure, 5 days growth; read-out: IC50 (Hypoxia)
pIC50: −log10 of the molar value.
Would you please tag the item y when its pIC50 is 7 or above, and n when it is below?

[[record]]
molecule = "COc1cc2c3c(c4cc(OC)c(OC)cc4c2cc1OC)CN1CCC[C@H]1C3 [(S)-Tylophorine]"
discrete_label = "y"

[[record]]
molecule = "Cn1c(COP(=O)(NCCBr)NCCBr)cnc1[N+](=O)[O-] [Evofosfamide]"
discrete_label = "y"

[[record]]
molecule = "COc1ccc2c3c(c4cc(OC)c(OC)cc4c2c1)C[C@H]1CCCN1C3 [(R)-Antofine, (R)-antofine]"
discrete_label = "y"

[[record]]
molecule = "COc1cc2c3c(c4cc(OC)c(OC)cc4c2cc1OC)C[N+]1(Cc2c([N+](=O)[O-])ncn2C)CCC[C@@H]1C3.[Br-] (stereo partly shown)"
discrete_label = "n"

[[record]]
molecule = "COc1cc2c3c(c4cc(OC)c(OC)cc4c2cc1OC)CN1CCC[C@@H]1C3 [(R)-Tylophorine]"
discrete_label = "y"

[[record]]
molecule = "COc1ccc2c3c(c4cc(OC)c(OC)cc4c2c1)C[C@H]1CCC[N+]1(Cc1c([N+](=O)[O-])ncn1C)C3.[Br-] (stereo partly shown)"
discrete_label = "n"

[[record]]
molecule = "COc1cc2c3c(c4cc(OC)c(OC)cc4c2cc1OC)C[N+]1(Cc2c([N+](=O)[O-])ncn2C)CCC[C@H]1C3.[Br-] (stereo partly shown)"
discrete_label = "n"


----------
Test system: H460
Test: Cytotoxicity under normoxia and hypoxia (anaerobic chamber, sulphorhodamine B), H460
Format: cell-based, human
Conditions: H460; HCR = normoxic IC50/hypoxic IC50
Text: We also checked if the designed prodrugs were able to liberate the active alkaloids in hypoxic tumors by testing them under hypoxic conditions using an anaerobic chamber. […] The extent to which a prodrug is deactivated relative to its parent drug under normoxic conditions is defined as the Deactivation Ratio (DR). The DR can be simply calculated as DR = IC50 (prodrug)/IC50 (parent drug). […]
HCR (Hypoxia Cytotoxicity Ratio) listing for selected compounds.
MEASURED_PARAMETER: HCR (Hypoxia Cytotoxicity Ratio)

[[record]]
compound = "COc1cc2c3c(c4cc(OC)c(OC)cc4c2cc1OC)CN1CCC[C@H]1C3 [(S)-Tylophorine]"
observed_result = 1.1

[[record]]
compound = "Cn1c(COP(=O)(NCCBr)NCCBr)cnc1[N+](=O)[O-] [Evofosfamide]"
observed_result = 251

[[record]]
compound = "CS(=O)(=O)OCCN(CCBr)c1c(C(=O)NCCO)cc([N+](=O)[O-])cc1[N+](=O)[O-] [PR-104A]"
observed_result = 2.5

[[record]]
compound = "COc1cc2c3c(c4cc(OC)c(OC)cc4c2cc1OC)CN1CCC[C@@H]1C3 [(R)-Tylophorine]"
observed_result = 1.1


----------
experiment: LogD determination; type: physicochemical; conditions: mean ± SE
# label = yes (1) if logD < 3 else no (0)

[[record]]
compound = "COc1cc2c3c(c4cc(OC)c(OC)cc4c2cc1OC)C[N+]1(Cc2c([N+](=O)[O-])ncn2C)CCC[C@H]1C3.[Br-] (some centres unmarked) [Compound 5b]"
discrete_label = "yes (1)"

[[record]]
compound = "COc1ccc2c3c(c4cc(OC)c(OC)cc4c2c1)C[C@H]1CCC[N+]1(Cc1c([N+](=O)[O-])ncn1C)C3.[Br-] (some centres unmarked) [Compound 5a]"
discrete_label = "yes (1)"

[[record]]
compound = "COc1cc2c3c(c4cc(OC)c(OC)cc4c2cc1OC)CN1CCC[C@H]1C3 [(S)-Tylophorine]"
discrete_label = "no (0)"

[[record]]
compound = "COc1ccc2c3c(c4cc(OC)c(OC)cc4c2c1)C[C@H]1CCCN1C3 [(R)-Antofine, (R)-antofine]"
discrete_label = "no (0)"

[[record]]
compound = "COC(=O)Nc1nc2ccc(C(=O)c3ccccc3)cc2[nH]1 [Mebendazole]"
discrete_label = "no (0)"

